# TARGET_UNDER_TEST: MMP-13CD (catalytic domain of collagenase 3) (Homo sapiens)
# METHOD_SUMMARY: Thiopeptolide hydrolysis assay, MMP-13CD
# Assay type: biochemical
# CONDITION_DESCRIPTION: thiopeptolide substrate, HEPES pH 7.0, 22° C.
REPORTED_METRIC: IC50 (µM)

* CC1(C)SCCN(S(=O)(=O)c2ccc(-c3cccc(C#N)c3)cc2)[C@H]1C(=O)O [Example 62] | 4.9
* CC1(C)SCCN(S(=O)(=O)c2ccc(-c3ccc(Cl)s3)cc2)[C@H]1C(=O)O [Example 50] | 0.12
* CCc1ccc(-c2ccc(S(=O)(=O)N3CCSC(C)(C)[C@@H]3C(=O)O)cc2)cc1 [Example 47] | 0.01
* CC1(C)SCCN(S(=O)(=O)c2ccc(-c3ccc4c(c3)OCO4)cc2)[C@H]1C(=O)O [Example 33] | 0.0443
* CC1(C)SCCN(S(=O)(=O)c2ccc(-c3ccc(F)cc3)cc2)[C@H]1C(=O)O [Example 32] | 0.145
* Cc1cc(-c2ccc(S(=O)(=O)N3CCSC(C)(C)[C@@H]3C(=O)O)cc2)ccc1F [Example 51] | 0.012
* CC1(C)[C@H](C(=O)O)N(S(=O)(=O)c2ccc(-c3ccc(Br)cc3)cc2)CCS1(=O)=O [Example 3] | 0.032
* CC1(C)SCCN(S(=O)(=O)c2ccc(-c3ccc(C(F)(F)F)cc3)cc2)[C@H]1C(=O)O [Example 57] | 0.013
* CC1(C)SCCN(S(=O)(=O)c2ccc(-c3ccc(C=O)cc3)cc2)[C@H]1C(=O)O [Example 30] | 0.096
* CC1(C)SCCN(S(=O)(=O)c2ccc(-c3cccc(F)c3)cc2)[C@H]1C(=O)O [Example 58] | 0.425

A = CC1(C)SCCN(S(=O)(=O)c2ccc(-c3ccc(-c4ccccc4)cc3)cc2)[C@H]1C(=O)O [Example 38]
B = CC1(C)SCCN(S(=O)(=O)c2ccc(-c3ccccc3C=O)cc2)[C@H]1C(=O)O [Example 63]
C = CC1(C)SCCN(S(=O)(=O)c2ccc(-c3cccc4ccccc34)cc2)[C@H]1C(=O)O [Example 28]
D = CC1(C)SCCN(S(=O)(=O)c2ccc(-c3ccc(Br)cc3)cc2)[C@H]1C(=O)O [Example 1]
List the 4 entries from lowest IC50 to highest IC50 value. Your reply should list the labels following the order given in the request.
A, D, C, B

----------
# TARGET_UNDER_TEST: MMP-2FL (full length Gelatinase A) (Homo sapiens, UniProt P08253)
# Sequence (P08253 110-660): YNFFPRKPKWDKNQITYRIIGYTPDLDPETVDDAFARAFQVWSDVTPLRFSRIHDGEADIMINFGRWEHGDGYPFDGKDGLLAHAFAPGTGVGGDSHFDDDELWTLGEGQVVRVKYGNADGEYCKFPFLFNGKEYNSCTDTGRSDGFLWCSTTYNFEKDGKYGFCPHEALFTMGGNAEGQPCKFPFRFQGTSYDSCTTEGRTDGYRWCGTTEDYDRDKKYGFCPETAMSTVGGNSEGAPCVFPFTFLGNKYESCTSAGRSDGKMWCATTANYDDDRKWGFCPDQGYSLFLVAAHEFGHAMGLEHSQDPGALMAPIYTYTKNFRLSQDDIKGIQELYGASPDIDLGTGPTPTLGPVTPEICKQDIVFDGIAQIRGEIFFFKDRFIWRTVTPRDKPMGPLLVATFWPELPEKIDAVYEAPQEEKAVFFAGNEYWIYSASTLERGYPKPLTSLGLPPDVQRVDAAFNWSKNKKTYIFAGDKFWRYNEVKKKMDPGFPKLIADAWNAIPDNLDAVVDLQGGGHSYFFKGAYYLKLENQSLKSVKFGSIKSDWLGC
# METHOD_SUMMARY: Thiopeptolide hydrolysis assay, MMP-2FL
# Type: biochemical
# CONDITION_DESCRIPTION: thiopeptolide substrate, HEPES pH 7.0, 22° C.
# Procedure: The assays measure the amount by which a test compound reduces the hydrolysis of a thiopeptolide substrate catalyzed by a matrix metalloproteinase enzyme. […] Thiopeptolide substrates show virtually no decomposition or hydrolysis at or below neutral pH in the absence of a matrix metalloproteinase enzyme. […] The change in absorbance at 405 nm is monitored on a Thermo Max microplate reader (Molecular Devices, Menlo Park, Calif.) at room temperature (22° C.). […]
REPORTED_METRIC: IC50 (µM)

Consider the following illustrative entries.
• CC1(C)SCCN(S(=O)(=O)c2ccc(-c3ccc(C(F)(F)F)cc3)cc2)[C@H]1C(=O)O [Example 57] = 0.0088
• CC1(C)SCCN(S(=O)(=O)c2ccc(-c3cccc4ccccc34)cc2)[C@H]1C(=O)O [Example 28] = 2.07
• Cc1cc(-c2ccc(S(=O)(=O)N3CCSC(C)(C)[C@@H]3C(=O)O)cc2)ccc1F [Example 51] = 0.027
• CC1(C)SCCN(S(=O)(=O)c2ccc(-c3cccc(OC(F)(F)F)c3)cc2)[C@H]1C(=O)O [Example 59] = 5.2
• Cc1ccc(-c2ccc(S(=O)(=O)N3CCSC(C)(C)[C@@H]3C(=O)O)cc2)s1 [Example 52] = 0.013

P = CC1(C)[C@H](C(=O)NO)N(S(=O)(=O)c2ccc(-c3ccc(Br)cc3)cc2)CCS1(=O)=O [Example 4]
Q = CC1(C)[C@H](C(=O)O)N(S(=O)(=O)c2ccc(-c3ccc(Br)cc3)cc2)CCS1(=O)=O [Example 3]
Of P and Q , which shows the smaller IC50 value? Response format: the label of the selected entry.
P
